# Test system: E. coli
# protocolDescription: microbe, parasite or virus in culture
# Format: cell-based
# conditionLabel: Escherichia coli, read-out: E. coli (MIC80, μM)
// MIC80 lookup, one value per entry
measuredAttribute: MIC80

- compound: "O=C(Cc1ccccc1)Sc1cccccc1=O [Compound 680]"
  measuredAttribute: "MIC80"
  result: "30 µM"
- compound: "CC(C)c1ccc(O)c(=O)c(O)c1 [Compound 46, β-thujaplicinol, reference compound]"
  measuredAttribute: "MIC80"
  result: "44 µM"
- compound: "O=c1c(O)cccc(SCc2ccccc2)c1O [Compound 702]"
  measuredAttribute: "MIC80"
  result: "9 µM"
- compound: "CC(C)Sc1ccc(SC(C)C)c(O)c(=O)c1O [Compound 696]"
  measuredAttribute: "MIC80"
  result: "20 µM"
- compound: "Cc1cc(O)c(=O)c(O)cc1C(=O)c1cccs1 [Compound 308]"
  measuredAttribute: "MIC80"
  result: "25 µM"

====

# targetEntity: Human RNase H1 (Homo sapiens)
# Construct: made in house; host or cells: E. coli
# Sequence (O60930 whole entry): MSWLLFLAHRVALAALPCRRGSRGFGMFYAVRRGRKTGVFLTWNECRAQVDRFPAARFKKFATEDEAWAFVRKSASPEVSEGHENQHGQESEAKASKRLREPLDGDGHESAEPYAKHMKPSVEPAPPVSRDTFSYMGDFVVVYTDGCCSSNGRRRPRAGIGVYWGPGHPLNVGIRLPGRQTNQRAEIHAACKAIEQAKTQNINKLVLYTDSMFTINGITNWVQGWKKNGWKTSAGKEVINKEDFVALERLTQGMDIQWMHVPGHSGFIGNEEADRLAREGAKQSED
# protocolDescription: biochemical
# conditionLabel: read-out: Human RNase H1 (IC50)
pIC50: −log10 of the molar value.
Use 4 as the dividing line for pIC50, with the line itself on the YES side and lower values as NO.

- molecule: "Cc1cc(O)c(=O)c(O)cc1C(=O)c1ccc(-c2ccccc2)cc1"
  class: "NO"
- molecule: "COc1ccc(/C=C/C(=O)c2ccccc(=O)c2O)cc1"
  class: "NO"
- molecule: "CC1=CC(O)N(O)C(O)=C1C(C)=Nc1ccccc1N (centres unmarked)"
  class: "NO"
- molecule: "O=c1c(O)c(SCc2ccccc2)ccc(SCc2ccccc2)c1O"
  class: "YES"
- molecule: "Cc1cc(O)c(=O)c(O)cc1C(=O)c1ccc(-c2ccncc2)cc1"
  class: "NO"
- molecule: "CC[C@H](C)[C@H](NC(=O)OCC1c2ccccc2-c2ccccc21)C(=O)Sc1cccccc1=O"
  class: "NO"
- molecule: "Cc1cc(O)c(=O)c(O)cc1-c1ccccc1"
  class: "NO"
- molecule: "CC(=O)c1c(C)cc(O)c(=O)c(O)c1-c1ccccc1"
  class: "NO"
- molecule: "CC(=Nc1ccc(C(F)(F)F)cc1)c1c(C)cc(=O)n(O)c1O"
  class: "NO"
- molecule: "COC(=O)c1c(C)cc(O)c(=O)c(O)c1O"
  class: "NO"
- molecule: "O=C1C=CC(=O)c2ccccc21"
  class: "YES"
- molecule: "Cc1ccc(/C=C/C(=O)c2ccccc(=O)c2O)cc1"
  class: "NO"
- molecule: "CC(=O)c1c(C)cc(O)c(=O)c(O)c1-c1cccc2ccccc12"
  class: "NO"
- molecule: "O=c1c(O)ccc(-c2ccco2)cc1O"
  class: "YES"
- molecule: "Cc1cc(O)c(=O)c(O)cc1C(=O)Nc1ccccc1"
  class: "NO"

====

# Test system: RVFV MP-12
# protocolDescription: microbe, parasite or virus in culture
# Assay type: cell-based, Rift Valley fever virus
# conditionLabel: read-out: Estimated EC50
pEC50: −log10 of the molar value.
Use 5 as the dividing line for pEC50, with the line itself on the True side and lower values as False.

- smilesRecord: "CCc1cccc(N=C(C)c2c(C)cc(=O)n(O)c2O)c1"
  class: "True"
- smilesRecord: "Cc1cc(O)c(=O)c(O)cc1-c1cccc(-c2cccc3ccccc23)c1"
  class: "False"
- smilesRecord: "Cc1cc(O)c(=O)c(O)cc1C(=O)Nc1cccc(Cc2ccccc2)c1"
  class: "False"
- smilesRecord: "Cc1cc(O)c(=O)c(O)cc1C(=O)N1CCCCC1"
  class: "True"
- smilesRecord: "O=C(O)CC(=O)CC(=O)c1cccs1"
  class: "False"
- smilesRecord: "O=c1c(O)cccc(SCCc2ccccc2)c1O"
  class: "False"
- smilesRecord: "CC(=O)c1c(C)cc(O)c(=O)c(O)c1-c1cccc2ccccc12"
  class: "True"
- smilesRecord: "NC(=O)c1c(N)sc2c1CCCCC2"
  class: "False"
- smilesRecord: "Cc1cc(O)c(=O)c(O)cc1C(=O)NCc1ccccc1"
  class: "False"
- smilesRecord: "Cc1cc(O)c(=O)c(O)cc1C(=O)N1CCSC1"
  class: "False"
- smilesRecord: "O=C1c2ccccc2C(=O)N1O"
  class: "False"
- smilesRecord: "Cc1cc(O)c(=O)c(O)cc1C(=O)NCc1ccc(N2CCCC2)cc1"
  class: "False"
- smilesRecord: "Cc1cc(O)c(=O)c(O)cc1C(=O)c1ccccc1O"
  class: "True"
- smilesRecord: "O=C1C=CC(=O)c2ccccc21"
  class: "True"
- smilesRecord: "Cc1ccc(CNC(=O)c2cc(O)c(=O)c(O)cc2C)c(C)c1"
  class: "False"

====

# System: RVFV strain MP-12
# protocolDescription: microbe, parasite or virus in culture
# Type: cell-based, Rift Valley fever virus
# conditionLabel: read-out: EC50
pEC50: −log10 of the molar value.

- smilesRecord: "Cc1cc(O)c(=O)c(O)cc1C(=O)c1ccccc1O"
  pEC50: 4.93
- smilesRecord: "O=C1C=CC(=O)c2ccccc21"
  pEC50: 4.40
- smilesRecord: "CC(=O)c1c(C)cc(O)c(=O)c(O)c1-c1cccc2ccccc12"
  pEC50: 4.80
- smilesRecord: "O=c1c(O)cccc(S(=O)(=O)c2cccc3ccccc23)c1O"
  pEC50: 4.93
- smilesRecord: "CCCCCCSc1cccc(O)c(=O)c1O"
  pEC50: 4.50
- smilesRecord: "O=c1c(O)c(SCc2ccccc2)ccc(SCc2ccccc2)c1O"
  pEC50: 4.79
- smilesRecord: "Cc1ccc(Sc2cccc(O)c(=O)c2O)cc1"
  pEC50: 4.90
- smilesRecord: "CC(=Nc1ccccc1Cl)c1c(C)cc(=O)n(O)c1O"
  pEC50: 4.72
- smilesRecord: "CC(=O)c1c(C)cc(O)c(=O)c(O)c1-c1ccccc1"
  pEC50: 4.98
- smilesRecord: "CCc1cccc(N=C(C)c2c(C)cc(=O)n(O)c2O)c1"
  pEC50: 4.71
- smilesRecord: "Cc1ccc(O)c(=O)c(O)c1"
  pEC50: 4.93

====

# Tested on: RVFV strain MP-12
# protocolDescription: microbe, parasite or virus in culture
# Format: cell-based, Rift Valley fever virus
# conditionLabel: read-out: A549 EC50
pEC50: −log10 of the molar value.

- smilesRecord: "COC(=O)c1c(C)cc(O)c(=O)c(O)c1Br"
  qualifierOperator: "<"
  pEC50: 3.92
- smilesRecord: "CC(=Nc1ccccc1Cl)c1c(C)cc(=O)n(O)c1O"
  qualifierOperator: "="
  pEC50: 4.45
- smilesRecord: "CC(=O)c1c(C)cc(O)c(=O)c(O)c1Br"
  qualifierOperator: "="
  pEC50: 4.04
- smilesRecord: "O=c1c(O)cccc(SCCc2ccccc2)c1O"
  qualifierOperator: "="
  pEC50: 4.70

====

# System: Vero cells
// CC50 lookup, one value per entry

- compound: "COC(=O)c1c(C)cc(O)c(=O)c(O)c1O [Compound 196]"
  CC50: "> 120 µM"
- compound: "COc1ccc(Cl)cc1C(=O)Sc1cccccc1=O [Compound 681]"
  CC50: "2 µM"
- compound: "Cc1cc(O)c(=O)c(O)cc1C(=O)Nc1ccccc1 [Compound 389]"
  CC50: "> 120 µM"
- compound: "Cc1cc(O)c(=O)c(O)cc1C(=O)Nc1cccc(Cc2ccccc2)c1 [Compound 799]"
  CC50: "62 µM"
- compound: "Cc1cc(O)c(=O)c(O)cc1C(=O)N1CCCCC1 [Compound 390]"
  CC50: "> 120 µM"
- compound: "O=c1nc(NO)ccn1[C@@H]1O[C@H](CO)[C@@H](O)[C@H]1O [EIDD-1931, β-D-N4-Hydroxycytidine, reference compound]"
  CC50: "> 120 µM"
- compound: "CC[C@H](C)[C@H](NC(=O)OCC1c2ccccc2-c2ccccc21)C(=O)Sc1cccccc1=O [Compound 686]"
  CC50: "> 120 µM"
- compound: "CC(=Nc1ccccc1Cl)c1c(C)cc(=O)n(O)c1O [Compound 668]"
  CC50: "> 120 µM"
- compound: "Cc1cc(O)c(=O)c(O)cc1C(=O)c1ccc(-c2ccncc2)cc1 [Compound 260]"
  CC50: "> 120 µM"
- compound: "CSc1cccc(O)c(=O)c1O [Compound 385]"
  CC50: "> 120 µM"
- compound: "Cc1cc(O)c(=O)c(O)cc1-c1cccc(-c2cccc3ccccc23)c1 [Compound 234]"
  CC50: "> 120 µM"
- compound: "Cc1cc(O)c(=O)c(O)cc1C(=O)N1CCSC1 [Compound 712]"
  CC50: "20 µM"
- compound: "Cc1ccc(CNC(=O)c2cc(O)c(=O)c(O)cc2C)c(C)c1 [Compound 809]"
  CC50: "64 µM"
- compound: "Cc1cc(O)c(=O)c(O)cc1C(=O)NCc1ccc(N2CCCC2)cc1 [Compound 1019]"
  CC50: "> 120 µM"
- compound: "Cc1ccc(O)c(=O)c(O)c1 [Compound 210]"
  CC50: "> 120 µM"
- compound: "Cc1cc(O)c(=O)c(O)cc1C(=O)c1ccc(Br)cc1 [Compound 358]"
  CC50: "> 120 µM"
- compound: "Cc1cc(O)c(=O)c(O)cc1C(=O)c1ccccc1 [Compound 111]"
  CC50: "> 120 µM"
- compound: "Cc1cc(O)c(=O)c(O)cc1C(=O)C1CCCCC1 [Compound 120]"
  CC50: "> 120 µM"
- compound: "Cc1cc(O)c(=O)c(O)cc1C(=O)Nc1cccc(OCc2ccccc2)c1 [Compound 836]"
  CC50: "> 120 µM"
- compound: "Cc1cc(O)c(=O)c(O)cc1C(=O)N1CCN(c2ccc([N+](=O)[O-])c3nonc23)CC1 [Compound 920]"
  CC50: "> 120 µM"
- compound: "Cc1cc(O)c(=O)c(O)cc1C(=O)N1CCN(C(=O)C2COc3ccccc3O2)CC1 (stereo not drawn) [Compound 876]"
  CC50: "> 120 µM"
- compound: "Cc1ccc(/C=C/C(=O)c2ccccc(=O)c2O)cc1 [Compound 340]"
  CC50: "70 µM"
- compound: "CCc1cccc(N=C(C)c2c(C)cc(=O)n(O)c2O)c1 [Compound 518]"
  CC50: "> 120 µM"
- compound: "Cc1cc(O)c(=O)c(O)cc1C(=O)NCCc1ccccc1 [Compound 710]"
  CC50: "> 120 µM"
- compound: "CC(=Nc1ccccc1F)c1c(C)cc(=O)n(O)c1O [Compound 516]"
  CC50: "> 120 µM"
- compound: "CC(=Nc1ccc(C(F)(F)F)cc1)c1c(C)cc(=O)n(O)c1O [Compound 517]"
  CC50: "> 120 µM"
- compound: "Cc1cc(O)c(=O)c(O)cc1C(=O)c1ccc(-c2ccccc2)cc1 [Compound 118]"
  CC50: "> 120 µM"
- compound: "Cc1cc(O)c(=O)c(O)cc1C(=O)Nc1ccc(F)cc1F [Compound 711]"
  CC50: "> 120 µM"
- compound: "CCCCCCSc1cccc(O)c(=O)c1O [Compound 840]"
  CC50: "> 120 µM"
- compound: "O=c1c(O)cccc(SCCc2ccccc2)c1O [Compound 704]"
  CC50: "> 120 µM"
- compound: "COC(=O)c1c(C)cc(O)c(=O)c(O)c1Br [Compound 335]"
  CC50: "> 120 µM"
- compound: "CC(=O)c1c(C)cc(O)c(=O)c(O)c1-c1cccc2ccccc12 [Compound 331]"
  CC50: "80.4 µM"
- compound: "Cc1cc(O)c(=O)c(O)cc1C(=O)NCc1ccccc1 [Compound 388]"
  CC50: "> 120 µM"
- compound: "O=c1c(O)ccc(-c2ccco2)cc1O [Compound 265]"
  CC50: "> 120 µM"
- compound: "COc1ccc(/C=C/C(=O)c2ccccc(=O)c2O)cc1 [Compound 342]"
  CC50: "> 120 µM"
- compound: "CC1=CC(O)N(O)C(O)=C1C(C)=Nc1ccccc1N (stereo not drawn) [Compound 208]"
  CC50: "> 120 µM"
